- assayTarget: Vg9/Vd1 T cell receptor expressed on SKW3 cells (UniProt Q99603)
- Sequence (Q99603 21-122): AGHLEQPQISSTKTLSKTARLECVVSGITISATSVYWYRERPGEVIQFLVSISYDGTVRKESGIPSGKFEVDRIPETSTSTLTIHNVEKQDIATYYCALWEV
- assayExplanation: flow cytometry, dose-response binding at 37 C, SKW3 cells expressing Vg9/Vd1
Catalogue of Max. Activity (fold over background) values
readoutLabel: Max. Activity (fold over background)

binder	readoutLabel	result
VG9B147 (antibody, human IgG1, lambda, V domains shown) VH: QVQLQESGPGLVNPSETLSLTCTVSGGSISGYFWNWIRQPPGKGLEWIGYIFYSGSTNYNPSLKSRVTISVDTSKNQFSLKLSSVTAADTAIYYCAREGKWELRSTFDIWGQGTMVTVSS VL: SSELTQDPAVSVALGQTVRITCQGDSLRSYYATWYQQKPGQAPILVIYGENNRPSGIPDRFSGSRSGNTASLTITGAQAEDEADYYCNSRDTGDHHLVFGGGTKLTVLG	Max. Activity (fold over background)	1.59
VG9B103 (antibody, human IgG1, kappa, V domains shown) VH: EVQLVQSGAEVKKPGSSVKVSCKTSGGTFSSYAISWVRQAPGQGLEWMGGIIPIFGTATYAQKFQDRVTITADKSTSTAYMELSSLRSEDTAVFYCARGVGWGTDYYYGLDVWGQGTTVTVSS VL: ETTLTQSPLSSPVTLGQPASISCRSSQGLVHSDGNTYLSWLQQRPGQSPRLLIYKISNRFSGVPDRFSGSGAGTDFTLKISRVEAEDVGVYYCMQATHHPLTFGGGTKVEIKR	Max. Activity (fold over background)	1.79
VG9B203 (antibody, human IgG1, lambda, V domains shown) VH: QVQLVQSGPGLVKPSETLSLTCTVSGDSIGHYYWNWIRQPAGKGLEWIGRIYTSGSTNYNPSLKSRVTMSVDTSKNQFSLKLSSVTAADTAVYYCARSGGNFYWYFDLWGRGTLVTVSS VL: QSVLTQPPSVSAAPGQKVTISCSGSSSNIGNNYVSWYQQVPGTAPKLLIYDNNKRPSGIPDRISGSKSGTSATLGITGLQTGDEADYYCGTWDSSLSAGVFGGGTKVTVLG	Max. Activity (fold over background)	1.3

Values from patent US20220125947A1
